These data points were gathered from patent US20250145606A1.

Biological target: UniProt:P10721
Sequence (P10721 26-976): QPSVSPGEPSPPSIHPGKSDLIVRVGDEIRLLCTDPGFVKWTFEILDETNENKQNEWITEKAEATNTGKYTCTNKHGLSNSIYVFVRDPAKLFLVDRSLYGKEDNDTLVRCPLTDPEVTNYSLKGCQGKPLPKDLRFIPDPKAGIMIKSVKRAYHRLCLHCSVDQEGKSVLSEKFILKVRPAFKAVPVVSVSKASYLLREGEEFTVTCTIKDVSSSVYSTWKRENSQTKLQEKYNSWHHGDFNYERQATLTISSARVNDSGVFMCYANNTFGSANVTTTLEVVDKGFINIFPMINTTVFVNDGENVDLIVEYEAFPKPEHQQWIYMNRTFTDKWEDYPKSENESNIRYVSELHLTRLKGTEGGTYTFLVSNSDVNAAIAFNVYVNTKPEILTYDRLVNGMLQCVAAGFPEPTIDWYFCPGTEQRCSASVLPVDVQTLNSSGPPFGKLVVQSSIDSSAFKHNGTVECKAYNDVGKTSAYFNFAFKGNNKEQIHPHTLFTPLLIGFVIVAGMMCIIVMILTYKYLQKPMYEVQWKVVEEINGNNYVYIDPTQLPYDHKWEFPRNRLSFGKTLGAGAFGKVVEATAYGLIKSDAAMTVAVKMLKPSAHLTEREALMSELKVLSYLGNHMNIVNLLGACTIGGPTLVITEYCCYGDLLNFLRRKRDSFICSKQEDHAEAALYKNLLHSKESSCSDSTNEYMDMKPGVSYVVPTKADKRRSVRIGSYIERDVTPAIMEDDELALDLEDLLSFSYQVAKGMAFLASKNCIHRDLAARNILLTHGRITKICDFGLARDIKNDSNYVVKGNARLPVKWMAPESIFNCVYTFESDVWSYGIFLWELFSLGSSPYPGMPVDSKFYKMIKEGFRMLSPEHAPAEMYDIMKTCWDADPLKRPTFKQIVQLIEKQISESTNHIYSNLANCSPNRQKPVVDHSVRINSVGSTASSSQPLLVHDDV
Experiment: Inhibition of c-Kit kinase activity (HTRF KinEASE-TK)
Format: biochemical
Details: biochemical, HTRF KinEASE-TK
pIC50: −log10 of the molar value.
property.name: pIC50

# compound Cc1cc(F)c(C(=O)Nc2cnn(C3CC3)c2)cc1NC(=O)c1cnc(N)s1 [Example 161] ; its pIC50 = > 7.00

Field pIC50 (entry Cc1cc(F)c(C(=O)Nc2ccn(C3CC(F)(F)C3)n2)cc1NC(=O)c1cnc(N)s1 [Example 139] ) reads > 7.00

Entry CO[C@H](C)c1ccc(NC(=O)c2cc(NC(=O)c3cnc(N)s3)c(C)cc2F)nc1 [Example 256] ; pIC50 = > 7.00

pIC50 in this record for Cc1cc(F)c(NC(=O)c2cnc(N)s2)cc1C(=O)Nc1ccc(OC2CC2)cn1 [Example 223] : 6.00 to 7.00

Query CCc1cnc(NC(=O)c2cc(NC(=O)c3cnc(C)s3)c(C)cc2F)cn1 [Example 27] yields pIC50 of > 7.00

Note to self: pIC50 recorded for Cc1cc(F)c(C(=O)Nc2nc(C)n(C)n2)cc1NC(=O)c1cnc(N)s1 [Example 173] was 6.00 to 7.00

Kindly note the recorded pIC50 for Cc1ncc(C(=O)Nc2cc(C(=O)Nc3ccc(OCC(F)F)cn3)c(F)cc2C)s1 [Example 36] , which is > 7.00

// pIC50 value for Nc1ncc(C(=O)Nc2cc(C(=O)Nc3ccc(C4CC4)nn3)c(F)cc2Cl)s1 [Example 201] : > 7.00
